molecular target: human GlyT1c transporter (Homo sapiens); construct: expressed in transfected cells; host or cells: CHO cells (recombinant; line hGlyT1c_5_CHO is named for the uptake assay); experiment: Radioligand binding assay using recombinant CHO cell membranes expressing human GlyT1; conditions: radioligand binding to human GlyT1c transporter-expressing membranes
Sequence (P48067 whole entry): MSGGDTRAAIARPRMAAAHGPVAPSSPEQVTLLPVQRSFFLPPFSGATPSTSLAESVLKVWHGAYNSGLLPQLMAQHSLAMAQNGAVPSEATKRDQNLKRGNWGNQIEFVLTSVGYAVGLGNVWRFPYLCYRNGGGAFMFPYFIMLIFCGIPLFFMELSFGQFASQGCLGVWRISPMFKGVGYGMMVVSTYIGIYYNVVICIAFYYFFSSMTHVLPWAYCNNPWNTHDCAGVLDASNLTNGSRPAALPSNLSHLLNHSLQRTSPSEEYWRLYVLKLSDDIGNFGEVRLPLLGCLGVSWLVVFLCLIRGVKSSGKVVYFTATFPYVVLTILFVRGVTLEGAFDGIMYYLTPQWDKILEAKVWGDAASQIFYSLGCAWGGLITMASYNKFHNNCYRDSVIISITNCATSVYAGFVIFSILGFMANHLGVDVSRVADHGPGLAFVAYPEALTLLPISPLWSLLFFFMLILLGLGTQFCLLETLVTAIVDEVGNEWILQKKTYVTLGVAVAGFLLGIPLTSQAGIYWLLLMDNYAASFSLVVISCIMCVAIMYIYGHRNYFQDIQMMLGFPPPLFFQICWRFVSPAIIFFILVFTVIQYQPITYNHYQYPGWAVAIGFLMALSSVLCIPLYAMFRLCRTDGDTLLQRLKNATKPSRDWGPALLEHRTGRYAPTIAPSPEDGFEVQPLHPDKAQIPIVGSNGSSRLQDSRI
pKi: −log10 of the molar value.
measured.endpoint: pKi

The recorded pKi with human GlyT1c transporter (Homo sapiens) for CCOCCCNC(=O)[C@@H]1CN(S(=O)(=O)c2cn(C)cn2)C[C@H]1c1ccc(F)cc1 was ≥ 5.00

The recorded pKi with human GlyT1c transporter (Homo sapiens) for Cn1cnc(S(=O)(=O)N2C[C@@H](NC(=O)c3cccc(C(F)(F)F)c3Cl)[C@H](c3ccccc3F)C2)c1 (relative stereo) was ≥ 6.00

The recorded pKi with human GlyT1c transporter (Homo sapiens) for Cn1cnc(S(=O)(=O)N2C[C@@H](NCc3ccc(C(F)(F)F)cc3Cl)[C@H](c3ccccc3)C2)c1 (relative stereo) [Example 281] was ≥ 8.00

The recorded pKi with human GlyT1c transporter (Homo sapiens) for Cn1cnc(S(=O)(=O)N2C[C@@H](Nc3ccc(F)cc3)[C@H](c3ccccc3Cl)C2)c1 (relative stereo) was ≥ 6.00
